# assay_system: Albumin (Homo sapiens)
# Sequence (P02768 whole entry): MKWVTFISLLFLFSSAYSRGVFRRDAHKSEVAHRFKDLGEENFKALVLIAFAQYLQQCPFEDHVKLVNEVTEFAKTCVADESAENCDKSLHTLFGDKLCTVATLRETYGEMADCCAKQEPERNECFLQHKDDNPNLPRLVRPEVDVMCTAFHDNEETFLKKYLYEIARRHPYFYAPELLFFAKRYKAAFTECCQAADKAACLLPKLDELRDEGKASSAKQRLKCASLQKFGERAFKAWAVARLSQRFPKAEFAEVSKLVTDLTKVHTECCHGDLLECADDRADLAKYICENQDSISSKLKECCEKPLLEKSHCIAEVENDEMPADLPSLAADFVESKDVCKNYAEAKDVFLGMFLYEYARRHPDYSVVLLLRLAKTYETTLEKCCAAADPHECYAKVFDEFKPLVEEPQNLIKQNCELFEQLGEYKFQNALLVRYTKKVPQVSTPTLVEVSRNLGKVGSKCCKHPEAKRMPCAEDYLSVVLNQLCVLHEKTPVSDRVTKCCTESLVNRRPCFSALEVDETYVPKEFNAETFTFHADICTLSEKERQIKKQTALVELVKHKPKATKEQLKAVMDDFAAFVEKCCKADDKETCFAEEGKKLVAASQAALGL
# method: Binding affinity to HSA assessed as binding constant at 310 K by fluorescence spectroscopy based Scatchard method
# Format: ADME
# test_parameters: isolated protein

{"columns": ["test_smiles", "assay_system", "Kb (×10⁵ L/mol)"],
 "data": [
  ["CCn1cc(-c2csc(N)n2)c(=O)c2cc(F)c(N3CCN(C/C(C)=N/OC)CC3)cc21", "Albumin (Homo sapiens)", 1.44]
]}

----------
# Tested on: Escherichia coli
# method: Antibacterial activity against Escherichia coli assessed as reduction in bacterial cell viability incubated for 24 hrs by two fold serial dilution method
# Assay type: functional
Threshold check on MIC: strictly below 300 µM is YES; on or above 300 µM is NO.

{"columns": ["test_smiles", "classification"],
 "data": [
  ["CCn1cc(-c2csc(N)n2)c(=O)c2cc(F)c(N3CCN(C/C(=N/OC)c4ccc(F)cc4)CC3)cc21", "NO"],
  ["CCn1cc(-c2csc(N)n2)c(=O)c2cc(N3CCN(C/C(=N/OC)c4ccc(Cl)cc4Cl)CC3)c(Cl)cc21", "NO"],
  ["CCn1cc(-c2csc(N)n2)c(=O)c2cc(F)c(N3CCN(C/C(=N/OC)c4ccc(F)cc4F)CC3)cc21", "NO"],
  ["CCn1cc(-c2csc(N)n2)c(=O)c2cc(F)c(N3CCN(C/C(=N/OC)c4ccc(Cl)cc4Cl)CC3)cc21", "YES"],
  ["CCn1cc(-c2csc(N)n2)c(=O)c2cc(F)c(N3CCN(C/C(C)=N/NC(N)=O)CC3)cc21", "YES"],
  ["CCO/N=C(\\C)CN1CCN(c2cc3c(cc2F)c(=O)c(-c2csc(N)n2)cn3CC)CC1", "YES"],
  ["CCn1cc(-c2csc(N)n2)c(=O)c2cc(N3CCN(C/C(=N/OC)c4ccc(Cl)cc4)CC3)c(Cl)cc21", "NO"],
  ["CCn1cc(C(=O)O)c(=O)c2cc(F)c(N3CCNCC3)cc21", "YES"],
  ["CCn1cc(-c2csc(N)n2)c(=O)c2cc(F)c(N3CCN(C/C(=N/OC)c4ccc(OC)cc4)CC3)cc21", "NO"],
  ["CCn1cc(-c2csc(N)n2)c(=O)c2cc(N3CCN(C/C(=N/OC)c4ccc(OC)cc4)CC3)c(Cl)cc21", "NO"],
  ["CCn1cc(-c2csc(N)n2)c(=O)c2cc(F)c(N3CCN(C/C(C)=N/OC)CC3)cc21", "YES"],
  ["CCn1cc(-c2csc(N)n2)c(=O)c2cc(N3CCN(C/C(C)=N/O)CC3)c(Cl)cc21", "YES"],
  ["CCn1cc(-c2csc(N)n2)c(=O)c2cc(F)c(N3CCN(CC(C)=O)CC3)cc21", "NO"],
  ["CCn1cc(-c2csc(N)n2)c(=O)c2cc(F)c(N3CCN(C/C(C)=N/OCc4ccc(Cl)cc4Cl)CC3)cc21", "NO"],
  ["CCn1cc(-c2csc(N)n2)c(=O)c2cc(N3CCN(C/C(C)=N/OC)CC3)c(Cl)cc21", "YES"],
  ["CCn1cc(-c2csc(N)n2)c(=O)c2cc(N3CCN(C/C(=N/OC)c4ccc(F)cc4)CC3)c(Cl)cc21", "YES"],
  ["CCn1cc(-c2csc(N)n2)c(=O)c2cc(F)c(N3CCN(C/C(=N/OC)c4ccc(Cl)cc4)CC3)cc21", "YES"],
  ["CCn1cc(-c2csc(N)n2)c(=O)c2cc(F)c(N3CCN(C/C(C)=N/O)CC3)cc21", "YES"]
]}
